MEASUREMENT_TARGET: T1, recombinant hCD127 (Sino Biologicals, reference 10975-H08H) (human, UniProt P16871 21-239)
T1 construct: Bought recombinant protein; In the Blitz assay the protein is said to be captured by an Fc fragment, and a second catalogue number (11612-H08H) is printed; also called human CD127 recombinant protein; recombinant human CD127
T1 chain: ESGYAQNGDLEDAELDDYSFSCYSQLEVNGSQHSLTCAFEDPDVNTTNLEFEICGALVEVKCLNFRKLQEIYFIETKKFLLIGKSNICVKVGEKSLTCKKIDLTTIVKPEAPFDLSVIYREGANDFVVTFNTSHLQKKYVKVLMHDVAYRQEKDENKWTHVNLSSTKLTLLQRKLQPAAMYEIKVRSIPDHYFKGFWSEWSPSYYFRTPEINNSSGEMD
TEST_SUMMARY: Blitz (BLI), hCD127 captured on anti-human IgG Fc (AHC) biosensor, antibody at 20 µg/mL
Known pKd of a selection of binders
pKd field: float, defined as -log10 of concentration (mol/L).

# annotated cases, reported pKd shown
N13B2-hVL6 (antibody, V domains shown, also called N13B2-h3VL6; N13B2-VL6-V48L-F87Y) VH: QVQLVESGGGLVKPGGSLRLSCAVSGFTLSDYYMAWIRQAPGKGLEWVSTISASGLRTYYPDSVKGRFTISRDNAKNSLYLQMNSLRAEDTAVYYCARPLSAHYGFNYFDYWGQGTLVTVSS VL: DIQMTQSPSSLSASVGDRVTITCRTSEDIYQGLAWYQQKPGKAPKLLLYSANTLHIGVPSRFSGSGSGTDYTLTISSLQPEDFATYYCQQYYDYPLAFGGGTKVEIKR
8.60
N13B2-hVL4 (antibody, V domains shown, also called N13B2-VL4-V48L) VH: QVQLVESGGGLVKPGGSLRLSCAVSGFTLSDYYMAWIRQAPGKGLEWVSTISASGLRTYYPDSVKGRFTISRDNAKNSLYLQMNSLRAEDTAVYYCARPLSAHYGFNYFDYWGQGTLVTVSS VL: DIQMTQSPSSLSASVGDRVTITCRTSEDIYQGLAWYQQKPGKAPKLLLYSANTLHIGVPSRFSGSGSGTDYTLTISSLQPEDFATYFCQQYYDYPLAFGGGTKVEIKR
8.57

Please examine the following record next.
Return the recorded pKd value; entry: N13B2-hVL5 (antibody, V domains shown, also called N13B2-VL5-F87Y) VH: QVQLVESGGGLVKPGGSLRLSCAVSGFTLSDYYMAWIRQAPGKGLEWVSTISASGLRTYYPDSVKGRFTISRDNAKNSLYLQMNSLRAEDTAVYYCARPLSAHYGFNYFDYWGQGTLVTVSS VL: DIQMTQSPSSLSASVGDRVTITCRTSEDIYQGLAWYQQKPGKAPKLLVYSANTLHIGVPSRFSGSGSGTDYTLTISSLQPEDFATYYCQQYYDYPLAFGGGTKVEIKR 8.58
